RESULT_TYPE: melting point

CPD_SMILES	RESULT_TYPE	MEAS_VALUE
Cc1cc(F)c2c(C#N)c(-c3ccc(S(=O)(=O)NC(C)(C)C(F)(F)F)cn3)n(C3CCCC3)c2c1	melting point	218 to 223 °C
N#Cc1c(-c2ccc(S(=O)(=O)NC3(C(F)(F)F)CC3)cn2)n(C2CCC2)c2ccc(F)cc12	melting point	176 to 183 °C
C[C@H](NS(=O)(=O)c1cnc(-c2c(C#N)c3ccc(C4CC4)cc3n2C2CCC2)nc1)C(F)(F)F	melting point	214 to 215 °C
CCc1ccc2c(c1)c(C#N)c(-c1ccc(S(=O)(=O)NC(CF)CF)cn1)n2C1CCC1	melting point	163 to 164 °C
N#Cc1c(-c2ccc(S(=O)(=O)NC(CF)CF)cn2)n(C2CCC2)c2cc(OC(F)F)ccc12	melting point	159 to 161 °C

# input Specify measured melting point for CCc1ccc2c(C#N)c(-c3ccc(S(=O)(=O)N[C@@H](C)C4CC4)cn3)n(C3CCCC3)c2c1 .
# output 147.5 to 148.5 °C

# input Please report the measured melting point for Cc1ccc2c(c1)c(C#N)c(-c1ccc(S(=O)(=O)NC(CF)CF)cn1)n2C1CCCC1
# output 168 to 173 °C

# input Fill in melting point for record Cc1ccc2c(c1)c(C#N)c(-c1ccc(S(=O)(=O)N[C@@H](C)C(F)(F)F)cn1)n2-c1ncc(F)cn1
# output 202 to 207 °C

# input Give recorded melting point. Cc1cc2c(cc1F)c(C(=O)NC(C)C)c(-c1ccc(S(=O)(=O)N[C@@H](C)C(F)(F)F)cn1)n2C1CCCC1
# output 234 to 236 °C

---

melting point for assorted compounds

COMPOUND	melting point
C[C@H](NS(=O)(=O)c1ccc(-c2c(C#N)c3ccc(C#N)cc3n2C2CCC2)nc1)C(F)(F)F [compound 467]	223 to 225 °C
C[C@@H](NS(=O)(=O)c1ccc(-c2c(C#N)c3ccc(C4CCC4)cc3n2C2CCCC2)nc1)C(F)(F)F [compound 343]	176 to 178 °C
CC(C)NS(=O)(=O)c1ccc(-c2c(C#N)c3ccc(SC(C)C)cc3n2C2CCC2)nc1 [compound 16]	129 to 131 °C
[2H]C([2H])([2H])c1cc2c(cc1F)c(C#N)c(-c1ccc(S(=O)(=O)N[C@@]([2H])(C)C(F)(F)F)cn1)n2C1CCC1 [compound 1114]	213 to 215 °C

# input For the compound CC(C)(NS(=O)(=O)c1ccc(-c2c(C#N)c3ccc(OC(F)F)cc3n2C2CCCC2)nc1)C(F)(F)F [compound 382] , give its reported melting point.
# output 170 to 174 °C

# input Report measured melting point; entry is Cc1ccc2c(c1)c(C#N)c(-c1ccc(S(=O)(=O)NC(C)(C)C(F)(F)F)cn1)n2C1CCC1 [compound 480]
# output 182 to 187 °C

# input Report measured melting point; entry is Cc1cc2c(cc1F)c(C#N)c(-c1ccc(S(=O)(=O)N[C@@H](C)C(F)(F)F)cn1)n2-c1ccnc(F)c1 [compound 1013]
# output 243.4 to 246.9 °C

---

Each entry below carries its recorded melting point.

MOLECULE	melting point
N#Cc1c(-c2ccc(S(=O)(=O)NC(CF)CF)cn2)n(C2CCCCC2)c2cc(OC(F)F)ccc12 [compound 100]	175 to 178 °C
N#Cc1c(-c2ncc(S(=O)(=O)NC(CF)CF)cn2)n(-c2ccccn2)c2cc(Cl)ccc12 [compound 450]	234 to 235 °C
CC(C)n1c(-c2ncc(S(=O)(=O)N[C@@H](C)C3CC3)cn2)c(C#N)c2cc(F)ccc21 [compound 529]	176 to 179 °C

Turning to the following molecule.
# input Identify melting point associated with the molecule CCc1ccc2c(c1)c(C#N)c(-c1ccc(S(=O)(=O)N[C@@H](C)C(F)(F)F)cn1)n2C1CCC1 [compound 339]
# output 168 to 169 °C
